Target: human Fpn (Homo sapiens)
Sequence (Q9NP59 1-571): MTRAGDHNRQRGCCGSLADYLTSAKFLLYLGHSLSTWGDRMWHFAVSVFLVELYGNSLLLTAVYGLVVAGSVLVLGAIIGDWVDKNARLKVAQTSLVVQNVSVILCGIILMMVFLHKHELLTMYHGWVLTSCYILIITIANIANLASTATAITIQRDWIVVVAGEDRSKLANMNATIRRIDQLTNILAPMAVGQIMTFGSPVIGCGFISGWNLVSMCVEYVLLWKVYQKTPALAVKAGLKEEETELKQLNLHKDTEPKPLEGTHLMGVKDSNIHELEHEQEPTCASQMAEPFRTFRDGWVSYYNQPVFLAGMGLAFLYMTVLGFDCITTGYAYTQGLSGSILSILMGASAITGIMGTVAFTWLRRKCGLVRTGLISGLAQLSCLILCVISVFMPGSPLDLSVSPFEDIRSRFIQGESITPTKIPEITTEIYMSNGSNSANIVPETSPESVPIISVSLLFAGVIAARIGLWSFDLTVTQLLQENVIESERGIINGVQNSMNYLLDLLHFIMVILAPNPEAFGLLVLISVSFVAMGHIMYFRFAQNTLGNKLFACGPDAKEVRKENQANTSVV
Assay Endpoint: IC50
Returns: string containing the number followed by the unit.

IC50 in this record for O=C(NCc1ncccc1Br)c1coc(CCNCCc2nc3ccccc3[nH]2)n1 [Compound (II′)] : 28 nM

---

Target: ferroportin (Fpn) (Mus musculus, UniProt Q9JHI9)
Construct: endogenous in cells; host or cells: J774 mouse macrophage cell line
Sequence (Q9JHI9 1-570): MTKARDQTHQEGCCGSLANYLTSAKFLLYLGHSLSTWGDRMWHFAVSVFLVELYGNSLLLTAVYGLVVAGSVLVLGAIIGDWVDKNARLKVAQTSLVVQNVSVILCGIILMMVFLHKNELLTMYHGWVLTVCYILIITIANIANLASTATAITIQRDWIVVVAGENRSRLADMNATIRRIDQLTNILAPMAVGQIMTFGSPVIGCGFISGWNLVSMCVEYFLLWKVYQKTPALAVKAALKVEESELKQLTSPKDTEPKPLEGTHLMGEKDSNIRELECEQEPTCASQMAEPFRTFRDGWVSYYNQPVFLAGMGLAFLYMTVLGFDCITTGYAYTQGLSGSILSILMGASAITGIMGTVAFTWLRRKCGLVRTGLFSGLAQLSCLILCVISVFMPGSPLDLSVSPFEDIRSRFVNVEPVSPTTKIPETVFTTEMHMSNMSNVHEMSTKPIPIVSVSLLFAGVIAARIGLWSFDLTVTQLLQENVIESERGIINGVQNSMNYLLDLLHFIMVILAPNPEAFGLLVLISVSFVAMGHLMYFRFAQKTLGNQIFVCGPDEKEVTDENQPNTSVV
Assay: Hepcidin internalization assay (J774)
Format: cell-based
Conditions: average of multiple measurements; hepcidin internalization assay; 3HCl-salts; read-out: J774 IC50
Assay Endpoint: pIC50
Interpret pIC50 as the negative base-10 log of the concentration measured in mol/L.

| Structure Smiles | Tested System | Recorded Result |
| --- | --- | --- |
| O=C(NCc1ncccc1Br)c1coc(CCNCCc2nc3ccccc3[nH]2)n1 | ferroportin (Fpn) (Mus musculus, UniProt Q9JHI9) | 8.22 |

Consider the record given below.
Value of measured pIC50 for the entry O=C(NCc1ncccc1F)c1coc(CCNCCc2nc3ccccc3[nH]2)n1 : 8.15
